# TARGET_OR_TEST_SYSTEM: GST-RIPK1 (recombinant GST-RIPK1 kinase domain (residues 1-327)) (Homo sapiens)
# Construct: recombinant GST-RIPK1 kinase domain (residues 1-327) enzyme
# ASSAY_COMMENT: RIPK1-ADP-Glo enzymatic assay
# MEASUREMENT_SETUP: 25 nM GST-RIPK1, 300 μM ATP, 3 μM dephosphorylated-MBP; 30 minutes pre-incubation, 150 minutes reaction; ten-point titration
pIC50: −log10 of the molar value.
MEASURED_METRIC: pIC50

>  <COMPOUND>
CC(C)(C)c1ncc(C#Cc2cncc3c2O[C@H]2C[C@@H]3N(C(=O)C(C)(C)C(F)F)C2)cn1

>  <MEASURED_METRIC>
pIC50

>  <VALUE_OBSERVED>
7.72

$$$$
>  <COMPOUND>
CC(C)(C(=O)N1C[C@@H]2C[C@H]1c1cncc(C#Cc3cncnc3)c1O2)C(F)F

>  <MEASURED_METRIC>
pIC50

>  <VALUE_OBSERVED>
7.49

$$$$
>  <COMPOUND>
CC(C)(C(=O)N1C[C@@H]2C[C@H]1c1cncc(Cl)c1O2)C(F)F

>  <MEASURED_METRIC>
pIC50

>  <VALUE_OBSERVED>
6.86

$$$$
>  <COMPOUND>
CCC(C)(C(=O)N1C[C@@H]2C[C@H]1c1cncc(C#N)c1O2)C(F)F (single isomer, unassigned) [Compound 1-84]

>  <MEASURED_METRIC>
pIC50

>  <VALUE_OBSERVED>
7.33

$$$$
>  <COMPOUND>
CCC(C)(C)C(=O)N1C[C@@H]2C[C@H]1c1cncc(Cl)c1O2

>  <MEASURED_METRIC>
pIC50

>  <VALUE_OBSERVED>
7.39

$$$$
>  <COMPOUND>
CC1(C(=O)N2C[C@@H]3C[C@H]2c2cncc(C#N)c2O3)Cc2cccc(Cl)c21 (single isomer, unassigned)

>  <MEASURED_METRIC>
pIC50

>  <VALUE_OBSERVED>
6.87

$$$$
>  <COMPOUND>
CCC(C)(OC)C(=O)N1C[C@@H]2C[C@H]1c1cncc(C#N)c1O2 (single isomer, unassigned) [Compound 1-17]

>  <MEASURED_METRIC>
pIC50

>  <VALUE_OBSERVED>
7.62

$$$$
>  <COMPOUND>
Cc1ncc2c(c1C#N)O[C@H]1C[C@@H]2N(C(=O)C23CCC(C(F)(F)F)(CC2)C3)C1

>  <MEASURED_METRIC>
pIC50

>  <VALUE_OBSERVED>
7.89

$$$$
>  <COMPOUND>
O=C(N1C[C@@H]2C[C@H]1c1cncc(F)c1O2)C12CCC(CC1(F)F)C2 (single isomer, unassigned) [Compound 2-18]

>  <MEASURED_METRIC>
pIC50

>  <VALUE_OBSERVED>
7.05

$$$$
>  <COMPOUND>
CC1(C(=O)N2C[C@@H]3C[C@H]2c2cncc(F)c2O3)CCCC1

>  <MEASURED_METRIC>
pIC50

>  <VALUE_OBSERVED>
7.13

$$$$
>  <COMPOUND>
CC(C)(C(=O)N1C[C@@H]2C[C@H]1c1cncc(C#Cc3ccc(C4CC4)nc3)c1O2)C(F)F

>  <MEASURED_METRIC>
pIC50

>  <VALUE_OBSERVED>
7.62

$$$$
>  <COMPOUND>
COC(C)(C(=O)N1C[C@@H]2C[C@H]1c1cncc(C#N)c1O2)C1CC1 (mixture of isomers)

>  <MEASURED_METRIC>
pIC50

>  <VALUE_OBSERVED>
6.35

$$$$
>  <COMPOUND>
CC(C)(C(=O)N1C[C@@H]2C[C@H]1c1cncc(F)c1O2)C1CC1

>  <MEASURED_METRIC>
pIC50

>  <VALUE_OBSERVED>
7.13

$$$$
>  <COMPOUND>
N#Cc1cncc2c1O[C@H]1C[C@@H]2N(C(=O)C23CSC(C2)C3)C1

>  <MEASURED_METRIC>
pIC50

>  <VALUE_OBSERVED>
7.66

$$$$
>  <COMPOUND>
C[C@@H]1C2CN(C(=O)C(C)(C)C(F)F)[C@H]1c1cncc(C#N)c1O2 (single isomer, unassigned)

>  <MEASURED_METRIC>
pIC50

>  <VALUE_OBSERVED>
6.36

$$$$

====

Each entry below carries its reported pIC50.
# TARGET_OR_TEST_SYSTEM: GST-RIPK1 (recombinant GST-RIPK1 kinase domain (residues 1-327)) (Homo sapiens)
# Construct: recombinant GST-RIPK1 kinase domain (residues 1-327) enzyme
# ASSAY_COMMENT: RIPK1-ADP-Glo enzymatic assay
# MEASUREMENT_SETUP: 25 nM GST-RIPK1, 300 μM ATP, 3 μM dephosphorylated-MBP; 30 minutes pre-incubation, 150 minutes reaction; ten-point titration
pIC50: −log10 of the molar value.
MEASURED_METRIC: pIC50

>  <GIVEN_SMILES>
N#CCc1cccc(C#Cc2cncc3c2O[C@H]2C[C@@H]3N(C(=O)C34CCC(F)(CC3)C4)C2)c1

>  <TARGET_OR_TEST_SYSTEM>
GST-RIPK1 (recombinant GST-RIPK1 kinase domain (residues 1-327)) (Homo sapiens)

>  <MEASURED_METRIC>
pIC50

>  <VALUE_OBSERVED>
8.00

$$$$
>  <GIVEN_SMILES>
N#Cc1cncc2c1O[C@H]1C[C@@H]2N(C(=O)C23CCC(F)(CC2)C3)C1

>  <TARGET_OR_TEST_SYSTEM>
GST-RIPK1 (recombinant GST-RIPK1 kinase domain (residues 1-327)) (Homo sapiens)

>  <MEASURED_METRIC>
pIC50

>  <VALUE_OBSERVED>
7.74

$$$$
>  <GIVEN_SMILES>
CC(C)(C(=O)N1C[C@@H]2C[C@H]1c1cncc(C#Cc3ccc(C(F)(F)F)nc3)c1O2)C(F)F

>  <TARGET_OR_TEST_SYSTEM>
GST-RIPK1 (recombinant GST-RIPK1 kinase domain (residues 1-327)) (Homo sapiens)

>  <MEASURED_METRIC>
pIC50

>  <VALUE_OBSERVED>
7.51

$$$$
>  <GIVEN_SMILES>
CC(C)(C(=O)N1C[C@@H]2C[C@H]1c1cncc(C#Cc3ccccc3F)c1O2)C(F)F

>  <TARGET_OR_TEST_SYSTEM>
GST-RIPK1 (recombinant GST-RIPK1 kinase domain (residues 1-327)) (Homo sapiens)

>  <MEASURED_METRIC>
pIC50

>  <VALUE_OBSERVED>
7.47

$$$$

====

# TARGET_OR_TEST_SYSTEM: GST-RIPK1 (recombinant GST-RIPK1 kinase domain (residues 1-327)) (Homo sapiens, UniProt Q13546)
# Construct: recombinant GST-RIPK1 kinase domain (residues 1-327) enzyme
# Sequence (Q13546 1-327): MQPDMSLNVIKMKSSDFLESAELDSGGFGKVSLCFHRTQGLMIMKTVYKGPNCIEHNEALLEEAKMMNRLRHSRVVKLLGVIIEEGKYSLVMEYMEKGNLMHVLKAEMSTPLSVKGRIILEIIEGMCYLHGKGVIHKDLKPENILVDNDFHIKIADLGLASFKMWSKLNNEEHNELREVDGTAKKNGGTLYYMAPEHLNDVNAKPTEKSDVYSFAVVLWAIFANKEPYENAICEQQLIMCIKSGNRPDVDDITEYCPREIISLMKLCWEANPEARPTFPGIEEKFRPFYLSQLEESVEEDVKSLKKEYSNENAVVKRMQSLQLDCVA
# ASSAY_COMMENT: RIPK1-ADP-Glo enzymatic assay
# MEASUREMENT_SETUP: 25 nM GST-RIPK1, 300 μM ATP, 3 μM dephosphorylated-MBP; 30 minutes pre-incubation, 150 minutes reaction; ten-point titration
pIC50: −log10 of the molar value.
Each entry below carries its reported pIC50.
MEASURED_METRIC: pIC50

>  <MOLECULE>
CC(C)(C)C(=O)N1C[C@@H]2C[C@H]1c1cncc(C#CC(O)(c3ccccc3)C(F)(F)F)c1O2 (stereo partly shown)

>  <VALUE_OBSERVED>
6.28

$$$$
>  <MOLECULE>
CC(C)(C(=O)N1C[C@@H]2C[C@H]1c1cncc(C#CCCC(F)(F)F)c1O2)C(F)F

>  <VALUE_OBSERVED>
6.58

$$$$
>  <MOLECULE>
COc1cnc(N2CCC(F)(C(=O)N3C[C@@H]4C[C@H]3c3cncc(C#N)c3O4)CC2)nc1

>  <VALUE_OBSERVED>
6.48

$$$$
>  <MOLECULE>
N#Cc1cncc2c1O[C@H]1C[C@@H]2N(C(=O)C23CC(C(F)(F)F)(CO2)C3)C1

>  <VALUE_OBSERVED>
6.29

$$$$
>  <MOLECULE>
Cc1ccc(C#Cc2cncc3c2O[C@H]2C[C@@H]3N(C(=O)C(C)(C)C(F)F)C2)c(C)n1

>  <VALUE_OBSERVED>
7.19

$$$$
>  <MOLECULE>
CC(C)(C)C(=O)N1C[C@@H]2C[C@H]1c1cncc(C#Cc3ccc(OC(F)(F)F)cc3)c1O2

>  <VALUE_OBSERVED>
7.33

$$$$
>  <MOLECULE>
CC(C)(C(=O)N1C[C@@H]2C[C@H]1c1cncc(C#CCF)c1O2)C(F)F

>  <VALUE_OBSERVED>
6.94

$$$$
